I'd be grateful if you could share measured Ki for these entries.
Target: 5-HT2 receptor (Sus scrofa)
Construct: membrane preparations from porcine cortical material; from tissue; host or cells: porcine cerebral cortex membranes
Sequence (P50129 whole entry): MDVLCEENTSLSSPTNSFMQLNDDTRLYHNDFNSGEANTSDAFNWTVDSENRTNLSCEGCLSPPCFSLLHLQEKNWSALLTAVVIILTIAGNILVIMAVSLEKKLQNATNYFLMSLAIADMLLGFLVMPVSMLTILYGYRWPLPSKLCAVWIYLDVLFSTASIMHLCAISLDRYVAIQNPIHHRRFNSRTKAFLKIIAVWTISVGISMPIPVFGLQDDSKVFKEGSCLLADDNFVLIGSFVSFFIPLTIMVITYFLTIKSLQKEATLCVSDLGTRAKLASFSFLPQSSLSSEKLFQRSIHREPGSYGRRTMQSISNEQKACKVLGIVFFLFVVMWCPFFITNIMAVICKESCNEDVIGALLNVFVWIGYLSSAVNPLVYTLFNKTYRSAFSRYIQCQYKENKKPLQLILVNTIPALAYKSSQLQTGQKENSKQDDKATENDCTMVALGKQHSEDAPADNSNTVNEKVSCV
Test: radioligand binding, porcine cortical membranes, [^3H]ketanserin
Details: porcine cortical membranes, [^3H]ketanserin

Tell us which Ki value is on record for "CC(=O)Nc1cccc(N2CCN(CCCCOc3ccn4ncc(C=O)c4c3)CC2)c1"
> 3 µM

# return recorded Ki for entry "COc1ccccc1N1CCN(CCCCOc2ccn3ncc(Br)c3c2)CC1"
0.301 to 3 µM

Give the reported value of Ki for this record: "Clc1ccccc1N1CCN(CCCCOc2ccn3ncc(I)c3c2)CC1"
0.301 to 3 µM

Specify reported Ki for the compound shown: "COc1ccccc1N1CCN(CCCCOc2cccc3ccnn23)CC1"
0.301 to 3 µM

Fill in Ki for record "COc1ccccc1N1CCN(CCCCOc2nn3ccccc3c2C=O)CC1"
0.301 to 3 µM
